Molecular target: JAK3 (Homo sapiens (Human))
Test: Enzyme assay (Assay Example^a 1), JAK3
Assay type: biochemical
Conditions: ATP 100 μM
readout: IC50

c1cc2c(ncn3nnc([C@H]4CC[C@H](CNC56CC(C5)C6)CC4)c23)[nH]1 : > 1 µM

Q: Returns the measured IC50 for the input compound. Input: N#CCCN[C@H]1CC[C@H](c2nnn3cnc4[nH]ccc4c23)CC1 [394b]
Ans: > 1 µM

Q: Look up IC50 for this compound: Clc1ccc(CN2CCC(c3nnn4cnc5[nH]ccc5c34)CC2)o1
Ans: 0.17 µM

----------
Target: JAK1 (Homo sapiens (Human))
Test: Enzyme assay (Assay Example^a 1), JAK1
Assay type: biochemical
Details: ATP 100 μM
readout: IC50 (µM)
Value expressed in µM; do not type the unit.

O=S(=O)(C[C@H]1CC[C@H](c2nnn3cnc4[nH]ccc4c23)CC1)NC1CC1 [compound 417] : 0.0078
c1cc2c(ncn3nnc(C4CCN(Cc5cnc(N6CCOCC6)s5)CC4)c23)[nH]1 [compound 234] : 0.36
c1cc2c(ncn3nnc([C@H]4CC[C@H](NCC5CC5)CC4)c23)[nH]1 [396b] : 0.022

Q: Consider the compound shown here: FC(F)(Br)CN[C@H]1CC[C@@H](c2nnn3cnc4[nH]ccc4c23)CC1 [382a] What is its recorded IC50?
Ans: 0.015

----------
Molecular target: JAK1 (Homo sapiens (Human))
Assay: Enzyme assay (Assay Example^a 1), JAK1
Type: biochemical
Conditions: ATP 100 μM
readout: IC50 (µM)
Give just the number in µM; leave the unit off.

N#C/C=C/[C@H]1CC[C@H](c2nnn3cnc4[nH]ccc4c23)CC1 : 0.0053

Q: Which IC50 is reported with JAK1 (Homo sapiens (Human)) for this entry: N#CCNC(=O)C[C@H]1CC[C@H](c2nnn3cnc4[nH]ccc4c23)CC1 [443b] ?
Ans: 0.01

Q: State its IC50 on JAK1 (Homo sapiens (Human)): N#CCN(CC1CC1)C[C@H]1CC[C@H](c2nnn3cnc4[nH]ccc4c23)CC1
Ans: 0.0095

Q: Notebook: pull reported IC50 for JAK1 (Homo sapiens (Human)), entry C(=C\c1ccco1)/CN1CCC(c2nnn3cnc4[nH]ccc4c23)CC1
Ans: 0.026

Q: Item [N-]=[N+]=NC[C@H]1CC[C@H](c2nnn3cnc4[nH]ccc4c23)CC1 with JAK1 (Homo sapiens (Human)) - IC50?
Ans: 0.00033

Q: Hi! What's the reported IC50 for CC(C)(C)OC(=O)N[C@H]1CCN(C[C@H]2CC[C@H](c3nnn4cnc5[nH]ccc5c34)CC2)C1 on JAK1 (Homo sapiens (Human))?
Ans: 0.0066

Q: Hello, I am looking for reported IC50 with JAK1 (Homo sapiens (Human)) for CN(CCO)C[C@H]1CC[C@H](c2nnn3cnc4[nH]ccc4c23)CC1 . Could you help?
Ans: 0.0095

----------
Molecular target: UniProtKB P29597
Assay: Enzyme assay (Assay Example^a 1), Tyk2
Assay type: biochemical
Details: ATP 100 μM
Just a reminder that ties go to 0.0: only IC50 strictly below 0.5 µM counts as 1.0.

Please review the following examples before continuing.
OCC1(NC[C@H]2CC[C@H](c3nnn4cnc5[nH]ccc5c34)CC2)CC1 [compound 327] : 0.0
FC1(F)Oc2ccc(NC[C@H]3CC[C@H](c4nnn5cnc6[nH]ccc6c45)CC3)cc2O1 [compound 275] : 0.0
c1cc2c(ncn3nnc(C4CCN(Cc5cocn5)CC4)c23)[nH]1 [compound 219] : 0.0
Fc1ccc(C2(NC[C@H]3CC[C@H](c4nnn5cnc6[nH]ccc6c45)CC3)COC2)cc1 [compound 322] : 1.0
N#Cc1ccc(CCN2CCC(c3nnn4cnc5[nH]ccc5c34)CC2)cc1 [compound 375] : 0.0

Q: Please indicate whether the reported IC50 of c1cc2c(ncn3nnc([C@H]4CC[C@H](CN5CCSC5)CC4)c23)[nH]1 [compound 254] is strictly below 0.5 µM.
Ans: 1.0

----------
Molecular target: JAK2 (Homo sapiens (Human), UniProt O60674)
Test: Enzyme assay (Assay Example^a 1), JAK2
Type: biochemical
readout: IC50 (µM)
Number in µM, nothing else.

Some entries whose results are on file:
OC1(c2ccc(Cl)c(C(F)(F)F)c2)CCN(C[C@H]2CC[C@H](c3nnn4cnc5[nH]ccc5c34)CC2)CC1 : 0.097
FC(F)(Br)CN[C@H]1CC[C@H](c2nnn3cnc4[nH]ccc4c23)CC1 [382b] : 0.0028

API: the following record is the query input.
Q: Can you share its IC50? I mean this molecule: FC(F)(F)c1ccc(CN2CCC(c3nnn4cnc5[nH]ccc5c34)CC2)cc1
Ans: 0.019

----------
Readings of IC50 for the listed molecules
Target: UniProt P29597
Test: Enzyme assay (Assay Example^a 1), Tyk2
Assay type: biochemical
Details: ATP 100 μM
Lab book: enter the figure in µM, no units written.

Cc1ccc(CN(C[C@H]2CC[C@H](c3nnn4cnc5[nH]ccc5c34)CC2)C(=O)CC#N)o1 : 0.58
O=S(=O)(O)C[C@H]1CC[C@H](c2nnn3cnc4[nH]ccc4c23)CC1 : 0.68
FC1(F)CN(C[C@H]2CC[C@H](c3nnn4cnc5[nH]ccc5c34)CC2)C1 : 0.86

Now for another entry.
Q: Could you tell me which IC50 is on file for FC1(F)CCN(C[C@H]2CC[C@H](c3nnn4cnc5[nH]ccc5c34)CC2)C1 ?
Ans: 0.9

----------
Target: Tyk2 (Homo sapiens (Human))
Assay: Enzyme assay (Assay Example^a 1), Tyk2
Type: biochemical
Conditions: ATP 100 μM
readout: IC50

Worked examples follow.
O=C(CN[C@H]1CC[C@H](c2nnn3cnc4[nH]ccc4c23)CC1)NCC(F)(F)F [384b] : > 1 µM
Cc1c(CN2CCC(c3nnn4cnc5[nH]ccc5c34)CC2)c(Cl)nn1CC(F)(F)F : > 1 µM

Please look at the following compound next.
Q: Please give the measured IC50 for this compound: FC(F)(F)C(F)(F)CN[C@H]1CC[C@@H](c2nnn3cnc4[nH]ccc4c23)CC1 [383a]
Ans: > 1 µM

----------
Biological target: Tyk2 (Homo sapiens (Human), UniProt P29597)
Sequence (P29597 whole entry): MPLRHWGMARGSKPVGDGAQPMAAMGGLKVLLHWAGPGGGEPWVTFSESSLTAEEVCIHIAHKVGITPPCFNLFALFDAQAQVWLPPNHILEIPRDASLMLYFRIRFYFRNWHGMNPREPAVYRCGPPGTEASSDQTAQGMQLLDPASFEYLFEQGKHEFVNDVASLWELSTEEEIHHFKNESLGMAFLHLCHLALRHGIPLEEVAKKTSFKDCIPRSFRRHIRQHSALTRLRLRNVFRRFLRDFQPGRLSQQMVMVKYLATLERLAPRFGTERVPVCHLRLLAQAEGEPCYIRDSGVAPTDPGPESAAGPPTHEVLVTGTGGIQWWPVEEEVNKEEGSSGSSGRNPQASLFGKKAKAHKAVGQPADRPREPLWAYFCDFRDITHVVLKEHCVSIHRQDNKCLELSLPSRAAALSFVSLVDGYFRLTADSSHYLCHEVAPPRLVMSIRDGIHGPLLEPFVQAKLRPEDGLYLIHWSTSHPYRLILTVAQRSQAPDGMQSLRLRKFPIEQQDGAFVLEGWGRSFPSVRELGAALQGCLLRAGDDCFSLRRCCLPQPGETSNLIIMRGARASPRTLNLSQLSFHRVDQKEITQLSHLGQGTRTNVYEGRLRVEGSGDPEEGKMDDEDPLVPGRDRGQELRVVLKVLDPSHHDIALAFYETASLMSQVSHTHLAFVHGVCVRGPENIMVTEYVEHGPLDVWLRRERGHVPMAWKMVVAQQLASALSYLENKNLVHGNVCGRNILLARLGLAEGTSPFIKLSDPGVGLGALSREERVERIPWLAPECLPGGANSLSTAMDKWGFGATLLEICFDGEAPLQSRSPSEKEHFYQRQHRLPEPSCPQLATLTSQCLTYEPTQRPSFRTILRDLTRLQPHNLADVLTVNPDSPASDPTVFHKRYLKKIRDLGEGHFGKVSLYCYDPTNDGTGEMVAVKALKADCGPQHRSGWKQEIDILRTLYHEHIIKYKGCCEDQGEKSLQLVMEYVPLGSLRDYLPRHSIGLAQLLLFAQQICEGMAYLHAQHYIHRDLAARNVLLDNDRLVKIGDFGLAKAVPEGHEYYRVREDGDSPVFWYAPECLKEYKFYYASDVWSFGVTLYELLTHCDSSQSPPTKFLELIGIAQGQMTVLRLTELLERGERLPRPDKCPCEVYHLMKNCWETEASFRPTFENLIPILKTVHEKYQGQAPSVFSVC
Assay: Enzyme assay (Assay Example^a 1), Tyk2
Format: biochemical
Conditions: ATP 100 μM
readout: IC50

Answered cases to consult:
CCN(C)C1CN(C[C@H]2CC[C@H](c3nnn4cnc5[nH]ccc5c34)CC2)C1 : > 1 µM
N#Cc1cc(CN2CCC(c3nnn4cnc5[nH]ccc5c34)CC2)ccc1F : > 1 µM

Would you kindly look at the next entry?
Q: Data request, read-out IC50, for FC1(F)Oc2cccc(CN3CCC(c4nnn5cnc6[nH]ccc6c45)CC3)c2O1
Ans: > 1 µM

----------
Each record here notes measured IC50.
Target: JAK3 (Homo sapiens (Human), UniProt P52333)
Sequence (P52333 whole entry): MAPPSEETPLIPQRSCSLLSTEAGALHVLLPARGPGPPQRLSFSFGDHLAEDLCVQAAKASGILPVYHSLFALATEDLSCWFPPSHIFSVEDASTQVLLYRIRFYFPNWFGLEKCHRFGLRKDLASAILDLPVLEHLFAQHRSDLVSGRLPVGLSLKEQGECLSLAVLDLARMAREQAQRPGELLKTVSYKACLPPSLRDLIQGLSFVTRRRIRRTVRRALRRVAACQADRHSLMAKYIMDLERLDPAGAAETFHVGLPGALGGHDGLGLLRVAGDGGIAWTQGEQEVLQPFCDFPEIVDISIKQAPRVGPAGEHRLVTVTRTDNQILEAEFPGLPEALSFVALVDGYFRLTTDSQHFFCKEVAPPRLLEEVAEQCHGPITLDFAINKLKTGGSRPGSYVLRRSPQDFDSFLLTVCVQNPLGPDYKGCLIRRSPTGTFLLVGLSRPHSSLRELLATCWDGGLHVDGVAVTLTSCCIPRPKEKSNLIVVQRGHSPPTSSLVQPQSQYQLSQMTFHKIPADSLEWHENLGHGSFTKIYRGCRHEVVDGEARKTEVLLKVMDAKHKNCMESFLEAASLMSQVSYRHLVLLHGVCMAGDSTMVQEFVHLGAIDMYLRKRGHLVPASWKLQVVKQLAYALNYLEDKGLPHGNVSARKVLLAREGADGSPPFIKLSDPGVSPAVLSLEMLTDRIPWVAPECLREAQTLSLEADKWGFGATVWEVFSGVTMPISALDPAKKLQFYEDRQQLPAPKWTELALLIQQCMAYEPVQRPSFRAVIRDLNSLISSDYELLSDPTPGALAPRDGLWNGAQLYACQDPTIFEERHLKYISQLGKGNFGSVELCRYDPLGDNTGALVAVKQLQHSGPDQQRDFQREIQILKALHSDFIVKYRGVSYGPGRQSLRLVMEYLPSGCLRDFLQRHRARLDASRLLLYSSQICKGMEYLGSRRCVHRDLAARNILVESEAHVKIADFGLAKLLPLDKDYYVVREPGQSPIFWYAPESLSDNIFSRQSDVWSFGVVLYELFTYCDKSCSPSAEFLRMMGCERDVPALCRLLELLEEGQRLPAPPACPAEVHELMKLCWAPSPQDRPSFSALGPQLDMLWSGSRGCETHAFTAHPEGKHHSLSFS
Experiment: Enzyme assay (Assay Example^a 1), JAK3
Format: biochemical
Details: ATP 100 μM; Table^a 154

As a guide, the following entries are already answered.
Clc1ccc(NC[C@H]2CC[C@H](c3nnn4cnc5[nH]ccc5c34)CC2)cc1 [compound 176] : > 1 µM
c1cc2c(ncn3nnc([C@H]4CC[C@H](NN5CCOCC5)CC4)c23)[nH]1 [139b] : > 1 µM

Now consider the entry below.
Q: Fill in the blank: the reported IC50 of FC(F)(F)C1CCC(N2CCC(c3nnn4cnc5[nH]ccc5c34)CC2)CC1 (single isomer, unassigned) [56a] is ____.
Ans: > 1 µM

----------
// values below are reported IC50
Target: JAK3 (Homo sapiens (Human))
Assay: Enzyme assay (Assay Example^a 1), JAK3
Assay type: biochemical
Conditions: ATP 100 μM

Q: Form field: reported IC50 of c1cc2c(ncn3nnc([C@H]4CC[C@H](NCC5CC5)CC4)c23)[nH]1 [396b]
Ans: > 1 µM

Q: // returns reported IC50 for input OC12CC3CC(C1)C(NC[C@H]1CC[C@H](c4nnn5cnc6[nH]ccc6c45)CC1)C(C3)C2 (stereo partly drawn) [compound 304]
Ans: > 1 µM

Q: For the molecule CN[C@H]1CC[C@H](c2nnn3cnc4[nH]ccc4c23)CC1 [398b] , what IC50 is on record?
Ans: > 1 µM

----------
Molecular target: JAK2 (Homo sapiens (Human), UniProt O60674)
Assay: JAK2 enzyme assay (Assay Example^b 1)
Details: IC50 (μM) JAK2, ATP 100 μM
Reported values of IC50 for individual entries

Here is how some molecules turned out for IC50.
O=c1[nH]c(=O)n(C2CCN(CCNC3CCNCC3)CC2)c2c1cnc1[nH]ccc12 [compound 111] : > 1 µM
O=c1[nH]c(=O)n(C2C3CC4CC2CC(O)(C4)C3)c2c1cnc1[nH]ccc12 (stereo not shown) [compound 105] : > 1 µM
CC(C)(C)OC(=O)N1CCC(NCCN2CCC(n3c(=O)[nH]c(=O)c4cnc5[nH]ccc5c43)CC2)CC1 [compound 109] : > 1 µM
N#CCn1c(=O)c2cnc3[nH]ccc3c2n(C2CCCCC2)c1=O [Synthetic Example^b 137] : > 1 µM

Q: Entry O=c1[nH]c(=O)n(C2CCN(CCNCC3CC3)CC2)c2c1cnc1[nH]ccc12 [compound 110] : reported IC50 = ?
Ans: > 1 µM

Q: Which IC50 value belongs to O=c1[nH]c(=O)n(C2CCN(CCN3CCOCC3)CC2)c2c1cnc1[nH]ccc12 [compound 108] ?
Ans: > 1 µM

Q: Fill blank: measured IC50 of the molecule O=c1[nH]c(=O)n(C2CCN(Cc3ccc(Br)s3)CC2)c2c1cnc1[nH]ccc12 [compound 89] is ____.
Ans: > 1 µM
